- ASSAY: solubility in soybean oil
- Format: physicochemical
- EXPERIMENTAL_PARAMETERS: soybean oil, 40 °C, oil or lipid; read-out: solubility of this compound in soybean oil
- Text: The oil phase component used for preparing fat emulsions (or lipid emulsions) may be any of those conventionally used for preparing fat emulsions (or lipid emulsions), including vegetable oils such as soybean oil, cottonseed oil, synthetic triglycerides such as Panasate 800, Panasate 810 (trade name; manufactured by Nippon Yushi), squalene, eicosapentaenoic acid, azone, and the like. […]
QUANTITY_NAME: solubility

- CCCCC/C=C\C/C=C\CCCCCCCC(=O)OCn1c(=O)c(F)cn([C@H]2C[C@H](OC(C)=O)[C@@H](COC(C)=O)O2)c1=O [Example 3]: > 300 mg/mL
